Target: Human BACE2 (Homo sapiens)
Construct: the soluble part of the human β-Secretase2 (AA1-AA473) was cloned using BACE2(1-473)-(AVT)-Fc-pDEST12.2 mammalian expression vector; AVT linker (C); made in house
Sequence (Q9Y5Z0 21-473): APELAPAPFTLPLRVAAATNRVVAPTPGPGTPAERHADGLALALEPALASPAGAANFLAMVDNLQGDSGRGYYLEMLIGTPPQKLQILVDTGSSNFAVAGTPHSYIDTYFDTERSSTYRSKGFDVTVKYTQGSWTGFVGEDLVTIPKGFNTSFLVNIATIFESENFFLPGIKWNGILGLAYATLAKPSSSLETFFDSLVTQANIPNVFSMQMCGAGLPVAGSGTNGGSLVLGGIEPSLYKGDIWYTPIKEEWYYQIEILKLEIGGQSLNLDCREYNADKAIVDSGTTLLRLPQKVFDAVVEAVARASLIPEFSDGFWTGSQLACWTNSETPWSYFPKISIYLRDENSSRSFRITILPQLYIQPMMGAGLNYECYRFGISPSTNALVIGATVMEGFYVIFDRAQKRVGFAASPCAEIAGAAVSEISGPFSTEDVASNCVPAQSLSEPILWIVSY
Test: TR-FRET assay
Assay type: biochemical
Conditions: enzyme 2.7 μg/mL, substrate 100 nM, pH4.5
READOUT KIND: log10 of IC50 (log10 of the value in nM)
Values below are the log10 of the recorded IC50, with nM as the unit.

[2H]C([2H])([2H])O[C@@H]1CC[C@]2(Cc3ccc(-c4cncc(C#N)c4)cc3[C@]23N=C(N)OC3([2H])[2H])C[C@H]1C [Compound 108] | 1.76
[2H]C1([2H])OC(N)=N[C@]12c1cc(-c3cncc(F)c3)ccc1C[C@@]21CC[C@H](OC)[C@@H](C)C1 [Compound 9] | 2.07
CO[C@H]1CC[C@]2(CC1)Cc1ccc(C#CC(C)C)cc1C21COC(N)=N1 (stereo partly drawn) [Compound 12] | 2.11
[2H]C1([2H])OC(N)=N[C@]12c1cc(-c3cccnc3)ccc1C[C@]21CC[C@@H](OC)[C@H](C)C1 [Compound 13] | 2.34
[2H]C1([2H])CC2(N=C(N)O1)c1cc(-c3cc(C#N)cc(OC)c3)ccc1C[C@]21CC[C@@H](OC)CC1 (stereo partly drawn) [Compound 85] | 1.80

Would you mind telling me what log10 of IC50 value was observed for [2H]C([2H])([2H])O[C@@H]1CC[C@]2(Cc3ccc(-c4cc(Cl)cnc4F)cc3[C@]23N=C(N)OC3([2H])[2H])C[C@H]1C [Compound 106] ?
1.90

Would you mind telling me what log10 of IC50 value was observed for CO[C@H]1CC[C@]2(CC1)Cc1ccc(-c3cncc(C#N)c3)cc1C21COC(N)=N1 (stereo partly drawn) [Compound 46] ?
2.48

Would you mind telling me what log10 of IC50 value was observed for CO[C@H]1CC[C@]2(CC1)Cc1ccc(CCC(C)C)cc1C21COC(N)=N1 (stereo partly drawn) [Compound 51] ?
2.49

Would you mind telling me what log10 of IC50 value was observed for [2H]C1([2H])OC(N)=N[C@]12c1cc(-c3cncc(C#CC)c3)ccc1C[C@]21CC[C@@H](OC)[C@H](C)C1 [Compound 2] ?
1.23

Would you mind telling me what log10 of IC50 value was observed for [2H]C1([2H])OC(N)=N[C@]12c1cc(-c3cc(F)cnc3F)ccc1C[C@@]21CC[C@H](OC)[C@@H](C)C1 [Compound 76] ?
2.36

Would you mind telling me what log10 of IC50 value was observed for [2H]C1([2H])OC(N)=N[C@]12c1cc(-c3cccnc3F)ccc1C[C@@]21CC[C@H](OC)[C@@H](C)C1 [Compound 5] ?
2.95

Would you mind telling me what log10 of IC50 value was observed for [2H]C1([2H])OC(N)=N[C@]12c1cc(-c3ccncc3)ccc1C[C@@]21CC[C@H](OC)[C@@H](C)C1 [Compound 112] ?
3.68
